protocol_notes: Quantitative High-Throughput drug screen in 47 multiple myeloma cell lines against the NCATS MIPE library collection: MM1S_ATCC cell viability assay (AID 1918980); note: nearly all actives have a fitted effect of over 45% in size
reported_conditions: MM1S myeloma viability, CellTiter-Glo ATP luminescence, 48 h; series mostly up to 45.8 µM
Results filed as inconclusive are left out. Active and inactive are the calls of the source. Calls come from the whole dose curve; as a rule, active = well fitted cell-killing curve with a large enough effect; inconclusive = small, poorly fitted or top-dose-only effect, or effect the other way; inactive = no such curve, though single readings can be large or run the other way.
Outcomes: 1 for active, -1 for inactive

compound=C=C(C)[C@@H]1CC[C@]2(C(=O)O)CC[C@]3(C)[C@H](CC[C@@H]4[C@@]5(C)CC[C@H](O)C(C)(C)[C@@H]5CC[C@]43C)[C@@H]12 group=-1
compound=Oc1ccc(-c2ccc(-c3cc(Nc4cccc(CNC5CC5)c4)n[nH]3)cc2)c(O)c1 group=1
compound=CCOC(=O)N1CCN([N+]([O-])=NOc2ccc([N+](=O)[O-])cc2[N+](=O)[O-])CC1 group=1
compound=C=CCNC1=C2C[C@@H](C)C[C@H](OC)[C@@H](O)[C@@H](C)C=C(C)[C@H](OC(N)=O)[C@@H](OC)C=CC=C(C)C(=O)NC(=CC1=O)C2=O group=1
compound=CC(=CC(=O)Nc1ccccc1C(=O)O)c1ccc2ccccc2c1 group=1
compound=CN(C)CCN1C(=O)c2cccc3cc(N)cc(c23)C1=O group=1
compound=NC(=O)c1ncn([C@@H]2O[C@H](CO)[C@@H](O)[C@@H]2O)c1N group=-1
compound=CC(=O)O[C@H]1C[C@@H]2CC[C@H]3[C@H]4C[C@H]([N+]5(C)CCCCC5)[C@@H](OC(C)=O)[C@@]4(C)CC[C@@H]3[C@@]2(C)C[C@H]1N1CCCCC1 group=1
compound=CC(=O)[C@]1(O)Cc2c(O)c3c(c(O)c2[C@@H](O[C@H]2C[C@H](N)[C@@H](O)[C@H](C)O2)C1)C(=O)c1ccccc1C3=O group=1
compound=COC1=C2C[C@@H](C)C[C@H](OC)[C@@H](O)[C@@H](C)C=C(C)[C@H](OC(N)=O)[C@@H](OC)C=CC=C(C)C(=O)NC(=CC1=O)C2=O group=1
compound=Nc1ncn([C@@H]2O[C@H](CO)[C@@H](O)[C@@H]2O)c(=O)n1 group=1
compound="CC(=O)C1=C(O)C=C2Oc3c(C(C)=O)c(O)c(C)c(O)c3C2(C)C1=O (centres undefined)" group=-1
compound=Cn1cc(-c2cnn3c(N)c(Br)c([C@H]4CCCNC4)nc23)cn1 group=1
compound="O=C1CSC(=O)N1C(CCc1ccncc1)COc1ccc(-c2cccc([N+](=O)[O-])c2)cc1 (centres undefined)" group=1
compound=COc1cc(C)c(C=CC(C)=CC=CC(C)=CC(=O)O)c(C)c1C group=-1
compound=Cc1ccc([N+](=O)[O-])cc1S(=O)(=O)N(C)N=Cc1cnc2ccc(Br)cn12 group=1
compound=COc1cc([C@@H]2c3cc4c(cc3[C@@H](O[C@@H]3O[C@@H]5CO[C@@H](c6cccs6)O[C@@H]5[C@H](O)[C@@H]3O)[C@H]3COC(=O)[C@H]23)OCO4)cc(OC)c1O group=1
compound=COC(=O)[C@@H]1[C@H]2C[C@@H]3c4[nH]c5ccccc5c4CCN3C[C@@H]2CC[C@@H]1O group=-1
compound=COc1ccc(C(C)=O)c(O)c1 group=1

* * *

protocol_notes: qHTS assay for measurement of the activity of small molecule inhibitors on Zika virus induced Caspase-3 activity in human iPSC derived neural progenitor cells (hNPCs) (AID 1224857); note: nearly all actives have a fitted effect of over 65% in size; note: potency is the fitted concentration of half-maximal effect
reported_conditions: hNPCs ZIKV-induced caspase-3/7, Caspase-Glo luminescence, 6 h; series mostly up to 45.7 µM
Results filed as inconclusive are left out. Calls of active or inactive are those of the source. The call rests on the fitted dose curve; in most records, active means well fitted inhibition curve with a large enough effect; inconclusive means small, poorly fitted or top-dose-only effect; inactive means no such curve, though single readings can be large or run the other way.
measured_metric: Potency

query_smiles=O=S(=O)(O)CCSSCCS(=O)(=O)O value="29.6 µM (active)"
query_smiles=O=C(CCCCCCC(=O)Nc1cccnc1)NO value=inactive
query_smiles=O=C(C[C@@H]1CC=CCCC(=O)O[C@H](c2ccccc2)CNC1=O)NCc1ccc(Cl)cc1 value=inactive
query_smiles=C[C@H]1C[C@H]2[C@@H]3CCC4=CC(=O)C=C[C@]4(C)[C@@H]3C(=O)C[C@]2(C)[C@@]1(O)C(=O)CO value=inactive
query_smiles=C[N+]1(C)[C@@H]2C[C@@H](OC(=O)C(O)(c3cccs3)c3cccs3)C[C@H]1[C@@H]1O[C@@H]12 value=inactive
